# experimental.system: Beta-secretase 1 (Homo sapiens)
# Sequence (P56817 whole entry): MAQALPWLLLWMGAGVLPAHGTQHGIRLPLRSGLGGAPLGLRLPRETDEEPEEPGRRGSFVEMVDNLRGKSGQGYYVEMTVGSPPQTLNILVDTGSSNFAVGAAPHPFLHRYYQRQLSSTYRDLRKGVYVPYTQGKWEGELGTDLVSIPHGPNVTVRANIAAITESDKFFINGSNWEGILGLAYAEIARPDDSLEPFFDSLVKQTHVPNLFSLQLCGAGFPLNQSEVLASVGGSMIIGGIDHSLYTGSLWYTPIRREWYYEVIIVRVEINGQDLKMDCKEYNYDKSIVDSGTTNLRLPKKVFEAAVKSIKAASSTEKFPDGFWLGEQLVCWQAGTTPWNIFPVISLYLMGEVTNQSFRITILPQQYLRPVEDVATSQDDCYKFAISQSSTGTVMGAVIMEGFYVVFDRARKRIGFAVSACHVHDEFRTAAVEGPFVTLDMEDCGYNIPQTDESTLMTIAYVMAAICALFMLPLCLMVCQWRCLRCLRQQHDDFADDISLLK
# assay.info: Inhibition of BACE1 at 20 ug/ml by FRET assay
Answer each item with its documented inhibition.
The figure you give is taken to be in %; do not add the unit.

What value of inhibition has been reported for the following compound? O=C(Cc1cccc2ccccc12)Nc1cc(Br)ccc1OCCN1CCOCC1
39.4

What value of inhibition has been reported for the following compound? O=S(=O)(Nc1cc(Br)ccc1OCCN1CCOCC1)c1ccc(Br)cc1
14.3

What value of inhibition has been reported for the following compound? CN(CCOc1ccc(Br)cc1NC(=O)Cc1cccc2ccccc12)Cc1ccccc1
41.8

What value of inhibition has been reported for the following compound? O=C(Cc1cccc2ccccc12)Nc1cc(Br)ccc1OCCNC1CCCCC1
64.5
